Numbers sourced from patent US20250084026A1.

assay: Solubility in bio-relevant media (water, SGF, FaSSIF, FeSSIF), HPLC; assay type: physicochemical; settings: simulated gastric fluid, thermodynamic from solid; SGF, 37° C., 1 h; read-out: Solubility-1 h concentration
readout-label: solubility at 1 h

solubility at 1 h measured on CNCc1cn(S(=O)(=O)c2ccc(OC)nc2)c(-c2ccccc2F)c1OC.O=C(O)/C=C/C(=O)O [Fumarate salt] = > 10000 µg/mL

###

For each record, write down the corresponding HPLC peak RT 10.813 min, RRT 1.07.
assay: Drug stability under stress condition, 60° C. open, XRPD and HPLC; type: physicochemical; settings: 60° C., Week 1
// return numeric value only (unit: %, not printed)

HPLC peak RT 10.813 min, RRT 1.07 measured on CNCc1cn(S(=O)(=O)c2ccc(OC)nc2)c(-c2ccccc2F)c1OC [Free base] = 0.57

HPLC peak RT 10.813 min, RRT 1.07 measured on CNCc1cn(S(=O)(=O)c2ccc(OC)nc2)c(-c2ccccc2F)c1OC.O=C(O)/C=C/C(=O)O [Fumarate salt] = 0.59

###

assay: Solubility in bio-relevant media (water, SGF, FaSSIF, FeSSIF), HPLC; type: physicochemical; conditions: thermodynamic from solid; water, 37° C., 1 h; read-out: Solubility-1 h concentration
readout-label: solubility at 1 h (µg/mL)
// return numeric value only (unit: µg/mL, not printed)

solubility at 1 h measured on CNCc1cn(S(=O)(=O)c2ccc(OC)nc2)c(-c2ccccc2F)c1OC.O=C(O)/C=C/C(=O)O [Fumarate salt] = 6390

###

test: Drug stability under stress condition, 60° C. open, XRPD and HPLC; format: physicochemical; conditions: 60° C., Week 2
readout-label: HPLC peak RT 10.813 min, RRT 1.07 (%)
// return numeric value only (unit: %, not printed)

HPLC peak RT 10.813 min, RRT 1.07 measured on CNCc1cn(S(=O)(=O)c2ccc(OC)nc2)c(-c2ccccc2F)c1OC.O=C(O)/C=C/C(=O)O [Fumarate salt] = 0.62

HPLC peak RT 10.813 min, RRT 1.07 measured on CNCc1cn(S(=O)(=O)c2ccc(OC)nc2)c(-c2ccccc2F)c1OC [Free base] = 0.53

###

For each record, write down the corresponding HPLC peak RT 10.813 min, RRT 1.07.
test: Drug stability under stress condition, 60° C. open, XRPD and HPLC; type: physicochemical; settings: Day 0
// return numeric value only (unit: %, not printed)

HPLC peak RT 10.813 min, RRT 1.07 measured on CNCc1cn(S(=O)(=O)c2ccc(OC)nc2)c(-c2ccccc2F)c1OC.O=C(O)/C=C/C(=O)O [Fumarate salt] = 0.6

HPLC peak RT 10.813 min, RRT 1.07 measured on CNCc1cn(S(=O)(=O)c2ccc(OC)nc2)c(-c2ccccc2F)c1OC [Free base] = 0.66

###

test: Drug stability under stress condition, 60° C. open, XRPD and HPLC; format: physicochemical; conditions: 60° C., Week 1
readout-label: HPLC peak RT 7.563 min, RRT 0.75 (%)
// return numeric value only (unit: %, not printed)

HPLC peak RT 7.563 min, RRT 0.75 measured on CNCc1cn(S(=O)(=O)c2ccc(OC)nc2)c(-c2ccccc2F)c1OC [Free base] = 1

###

assay: Solubility in bio-relevant media (water, SGF, FaSSIF, FeSSIF), HPLC; format: physicochemical; conditions: thermodynamic from solid; FaSSIF, 37° C., 24 h; read-out: Solubility-24 h concentration
readout-label: solubility at 24 h (µg/mL)
// return numeric value only (unit: µg/mL, not printed)

solubility at 24 h measured on CNCc1cn(S(=O)(=O)c2ccc(OC)nc2)c(-c2ccccc2F)c1OC.O=C(O)/C=C/C(=O)O [Fumarate salt] = 7580
